Assay: Oral LD50 in mice
Conditions: mouse, in vivo, female Swiss CF mice, 20 g, 14 days observation, read-out: approximate oral LD50
Protocol: The compounds were suspended in a 3% strength solution of gum arabic so as to supply, in a volume of 2 ml for the rats, the equivalent of 50, 100, 200, 400 and 800 mg/kg, and, in a volume of 1 ml for the mice, 100, 200, 400, 800 and 1,600 mg/kg and, for 1573 and 1579, 3,200 mg/kg. Gavage was performed by means of a metal tube, on batches of 5 animals for each series. The animals were observed daily for 14 days.
Entries annotated with measured LD50 at 336 h

Solved entries:
O=C(O)CCCNS(=O)(=O)c1ccc(Cl)cc1C(=O)c1ccccc1Cl [Compound 1573] :: > 3200 mg/kg
O=C(O)CCCCCCCCCCNS(=O)(=O)c1ccc(Cl)cc1C(=O)c1ccccc1Cl [Compound 1574] :: > 1600 mg/kg
O=C(c1ccccc1)c1cc([N+](=O)[O-])ccc1S(=O)(=O)NCCCN1CCOCC1 [Compound 1361] :: > 1600 mg/kg
O=C(O)CCCCCCCCCCNS(=O)(=O)c1ccc(Cl)cc1C(=O)c1ccccc1 [Compound 1572] :: > 1600 mg/kg

Qu. Look at this compound and give its reported LD50 at 336 h. O=C(c1ccccc1)c1ccccc1S(=O)(=O)NCCN1CCOCC1 [Compound 1341]
Ans. 250 mg/kg

* * *

System: biosynthesis of leukotrienes B4 (LTB4), human polymorphonuclear leukocytes
Assay: Biosynthesis of LTB4, isomers and oxidized metabolites in human polymorphonuclear leukocytes
Type: cell-based
Conditions: Leukocyte, first experiment, read-out: LTB4: percentage inhibition (+ : percentage increase in the production)
Method: Polymorphonuclear leukocytes are isolated from human blood and used during the 6 hours following the withdrawal. The viability of the cells is checked by trypan blue exclusion. […] On centrifugation, the culture supernatant is withdrawn. The latter is retrieved under argon and stored at -80° C. until analysed by HPLC. […]
Please mark criterion met if the recorded inhibition at 40 µM is equal to or greater than 20%, and criterion not met if it falls below.

O=C(O)CCCCCCCCCCCNS(=O)(=O)c1ccccc1C(=O)c1ccccc1 :: criterion not met
O=C(O)CCCCCCCCCCNS(=O)(=O)c1ccccc1C(=O)c1ccccc1 :: criterion met
O=C(O)CCCCCCCCCCCNS(=O)(=O)c1ccc(C(=O)c2ccccc2)cc1 :: criterion not met

Qu. State whether the measured inhibition at 40 µM reaches 20%, counting equality as reaching it, for `O=C(O)CCCCCCCCCCNS(=O)(=O)c1cccc(C(=O)c2cc(S(=O)(=O)NCCCCCCCCCCC(=O)O)ccc2Cl)c1`
Ans. criterion met

Qu. Follow-up item: `O=C(O)CCCCCCCCCCNS(=O)(=O)c1ccc(Cl)cc1C(=O)c1ccccc1`
Ans. criterion met

Qu. Another: `O=C(O)CCCCCCCCCCCNS(=O)(=O)c1cccc(C(=O)c2cc(S(=O)(=O)NCCCCCCCCCCCC(=O)O)ccc2Cl)c1`
Ans. criterion not met

Qu. Also need `O=C(O)CCCCCCCCCCNS(=O)(=O)c1ccc(Cl)cc1C(=O)c1ccccc1Cl` , thanks.
Ans. criterion met

Qu. Again, but for `O=C(O)CCCCCCCCCCNS(=O)(=O)c1ccc(C(=O)c2ccccc2)cc1`
Ans. criterion not met

Qu. Also `O=C(O)CCCCCCCCCCCNS(=O)(=O)c1cccc(C(=O)c2ccccc2)c1` , if possible.
Ans. criterion met

Qu. And the next one, `O=C(O)CCCCCCCCCCNS(=O)(=O)c1ccc([N+](=O)[O-])cc1C(=O)c1ccccc1` ?
Ans. criterion met
